Biological target: UniProtKB Q96RI1
Sequence (Q96RI1 1-486): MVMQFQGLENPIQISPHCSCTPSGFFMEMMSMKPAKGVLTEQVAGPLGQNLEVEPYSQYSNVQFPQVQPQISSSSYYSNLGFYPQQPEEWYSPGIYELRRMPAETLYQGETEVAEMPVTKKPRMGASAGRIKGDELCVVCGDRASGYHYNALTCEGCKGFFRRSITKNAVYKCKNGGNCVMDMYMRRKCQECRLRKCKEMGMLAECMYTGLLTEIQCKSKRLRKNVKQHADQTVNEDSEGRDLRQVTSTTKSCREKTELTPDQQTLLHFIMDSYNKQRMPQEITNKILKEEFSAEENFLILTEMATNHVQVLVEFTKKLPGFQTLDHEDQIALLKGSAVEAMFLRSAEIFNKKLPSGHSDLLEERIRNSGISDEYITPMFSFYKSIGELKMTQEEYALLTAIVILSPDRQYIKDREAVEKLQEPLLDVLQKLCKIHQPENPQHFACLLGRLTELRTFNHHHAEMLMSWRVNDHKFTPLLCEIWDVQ
Assay: Human FXR (NR1H4) Assay: Gal4 promoter driven luciferase reporter transactivation in CHO cells (Indigo Bioscience kit IB00601)
Conditions: Human FXR (NR1H4) reporter assay, potency ranges
pEC50: −log10 of the molar value.
EXPERIMENTAL_ENDPOINT: pEC50

>>> print(df.to_string())
                                    molecule               tgt  measured_result
 0  COC(=O)c1cnc2nc(N3C4CCC3CC(NCc3c(-c5c(Cl)cccc5Cl)noc3C3CC3)C4)sc2n1 (centres unmarked)  UniProtKB Q96RI1     7.00 to 9.00
 1  O=C(O)c1cccc(N2CCN(Cc3c(-c4c(Cl)cccc4Cl)noc3C3CC3)CC2)c1  UniProtKB Q96RI1           < 6.00
 2  CCOc1cc(C(=O)NS(=O)(=O)N2CCCCC2)cc2sc(N3C4CCC3CC(NCc3c(-c5c(Cl)cccc5Cl)noc3C3CC3)C4)nc12 (centres unmarked)  UniProtKB Q96RI1           > 9.00
 3  Cc1cc2nc(N3C4CCC3CC(NCc3c(-c5c(Cl)cccc5Cl)noc3C3CC3)C4)sc2cc1C(=O)NS(=O)(=O)N1CCCCC1 (centres unmarked)  UniProtKB Q96RI1           > 9.00
 4  O=C(O)c1cc(F)c(N2C3CCC2CC(NCc2c(-c4ccccc4OC(F)(F)F)noc2C2CC2)C3)c(F)c1 (centres unmarked)  UniProtKB Q96RI1     7.00 to 9.00
 5  O=C(O)c1ccc2nc(N3[C@@H]4CC[C@H]3C[C@@H](NCc3c(-c5c(Cl)cccc5Cl)noc3C3CC3)C4)sc2c1  UniProtKB Q96RI1     7.00 to 9.00
 6  O=CC1(S(=O)(=O)NC(=O)c2cc(F)c3nc(N4C5CCC4CC(NCc4c(-c6c(Cl)cccc6Cl)noc4C4CC4)C5)sc3c2)CC1 (centres unmarked)  UniProtKB Q96RI1     7.00 to 9.00
 7  O=C(O)c1ccc2nc(N3C4CCC3CN(Cc3c(-c5c(Cl)cccc5Cl)noc3C3CC3)C4)sc2c1  UniProtKB Q96RI1     6.00 to 7.00
 8  CC(C)Oc1cc(C(=O)NS(=O)(=O)N2CCCCC2)cc2sc(N3C4CCC3CC(NCc3c(-c5c(Cl)cccc5Cl)noc3C3CC3)C4)nc12 (centres unmarked)  UniProtKB Q96RI1     7.00 to 9.00
 9  COC(=O)c1cc(OC(C)C)c2nc(N3C4CCC3CC(NCc3c(-c5ccccc5OC(F)(F)F)noc3C3CC3)C4)sc2c1 (centres unmarked)  UniProtKB Q96RI1     7.00 to 9.00
10  CN(C)S(=O)(=O)NC(=O)c1cc(F)c2nc(N3C4CCC3CC(NCc3c(-c5c(Cl)cccc5Cl)noc3C3CC3)C4)sc2c1 (centres unmarked)  UniProtKB Q96RI1           > 9.00
11  CC(C)Oc1cc(C(=O)NS(=O)(=O)C2(C)CC2)cc2sc(N3CCC(NCc4c(-c5c(Cl)cccc5Cl)noc4C4CC4)CC3)nc12  UniProtKB Q96RI1     7.00 to 9.00
12  COC(=O)c1cc(OC(C)C)c2nc(N3CCC(NCc4c(-c5c(Cl)cccc5Cl)noc4C4CC4)CC3)sc2c1  UniProtKB Q96RI1     6.00 to 7.00
13  COC(=O)c1cc2sc(N3C4CCC3CC(NCc3c(-c5c(Cl)cccc5Cl)noc3C3CC3)C4)nc2cc1F (centres unmarked)  UniProtKB Q96RI1     7.00 to 9.00
14  COC(=O)c1cc(OC(F)F)c2nc(N3C4CCC3CC(NCc3c(-c5c(Cl)cccc5Cl)noc3C3CC3)C4)sc2c1 (centres unmarked)  UniProtKB Q96RI1     7.00 to 9.00
15  O=C(O)c1ccc2nc(N3C4CCC3CC(NCc3c(-c5c(Cl)cccc5Cl)noc3C3CC3)C4)oc2c1 (centres unmarked)  UniProtKB Q96RI1     7.00 to 9.00
16  O=C(NS(=O)(=O)C1CCCC1)c1ccc2nc(N3C4CCC3CC(NCc3c(-c5c(Cl)cccc5Cl)noc3C3CC3)C4)sc2c1 (centres unmarked)  UniProtKB Q96RI1           > 9.00
17  CCOC(=O)c1ccc2nc(N3C4CCC3CC(NCc3c(-c5ccccc5OC(F)(F)F)noc3C3CC3)C4)sc2c1 (centres unmarked)  UniProtKB Q96RI1     7.00 to 9.00
18  CC(C)Oc1cc(C(=O)NS(=O)(=O)C2CC2)cc2sc(N3C4CCC3CC(NCc3c(-c5ccccc5C(F)(F)F)noc3C3CC3)C4)nc12 (centres unmarked)  UniProtKB Q96RI1     7.00 to 9.00
19  CN(c1nc2ccc(C(=O)O)cc2s1)C1CCC(OCc2c(-c3c(Cl)cccc3Cl)noc2C2CC2)CC1 (centres unmarked)  UniProtKB Q96RI1     6.00 to 7.00
20  Cc1cc(C(=O)O)cc2sc(N3C4CCC3CC(NCc3c(-c5c(Cl)cccc5Cl)noc3C3CC3)C4)nc12 (centres unmarked)  UniProtKB Q96RI1           > 9.00
21  CC1(S(=O)(=O)NC(=O)c2ccc(N3C4CCC3CC(NCc3c(-c5ccccc5OC(F)(F)F)noc3C3CC3)C4)nc2)CC1 (centres unmarked)  UniProtKB Q96RI1     6.00 to 7.00
22  O=C(NS(=O)(=O)C1CC1)c1ccc2nc(N3C4CCC3CC(NCc3c(-c5ccccc5C(F)(F)F)noc3C3CC3)C4)oc2c1 (centres unmarked)  UniProtKB Q96RI1     7.00 to 9.00
23  O=C(NS(=O)(=O)C1CC1)c1ccc2nc(N3CCC(NCc4c(-c5ccccc5OC(F)(F)F)noc4C4CC4)CC3)sc2c1  UniProtKB Q96RI1           < 6.00
24  O=C(NS(=O)(=O)C1CC1)c1cc(F)c2nc(N3CCC(NCc4c(-c5c(Cl)cccc5Cl)noc4C4CC4)CC3)sc2c1  UniProtKB Q96RI1     6.00 to 7.00
25  CC1(S(=O)(=O)NC(=O)c2ccc3nc(N4C5CCC4CC(NCc4c(-c6ccccc6C6CC6)noc4C4CC4)C5)sc3c2)CC1 (centres unmarked)  UniProtKB Q96RI1     7.00 to 9.00
